Each entry below lists one item and its recorded Normalized Z rep2 value.
- targetSystem: SpCas9 (Streptococcus pyogenes serotype M1, UniProt Q99ZW2)
- Sequence (Q99ZW2 whole entry): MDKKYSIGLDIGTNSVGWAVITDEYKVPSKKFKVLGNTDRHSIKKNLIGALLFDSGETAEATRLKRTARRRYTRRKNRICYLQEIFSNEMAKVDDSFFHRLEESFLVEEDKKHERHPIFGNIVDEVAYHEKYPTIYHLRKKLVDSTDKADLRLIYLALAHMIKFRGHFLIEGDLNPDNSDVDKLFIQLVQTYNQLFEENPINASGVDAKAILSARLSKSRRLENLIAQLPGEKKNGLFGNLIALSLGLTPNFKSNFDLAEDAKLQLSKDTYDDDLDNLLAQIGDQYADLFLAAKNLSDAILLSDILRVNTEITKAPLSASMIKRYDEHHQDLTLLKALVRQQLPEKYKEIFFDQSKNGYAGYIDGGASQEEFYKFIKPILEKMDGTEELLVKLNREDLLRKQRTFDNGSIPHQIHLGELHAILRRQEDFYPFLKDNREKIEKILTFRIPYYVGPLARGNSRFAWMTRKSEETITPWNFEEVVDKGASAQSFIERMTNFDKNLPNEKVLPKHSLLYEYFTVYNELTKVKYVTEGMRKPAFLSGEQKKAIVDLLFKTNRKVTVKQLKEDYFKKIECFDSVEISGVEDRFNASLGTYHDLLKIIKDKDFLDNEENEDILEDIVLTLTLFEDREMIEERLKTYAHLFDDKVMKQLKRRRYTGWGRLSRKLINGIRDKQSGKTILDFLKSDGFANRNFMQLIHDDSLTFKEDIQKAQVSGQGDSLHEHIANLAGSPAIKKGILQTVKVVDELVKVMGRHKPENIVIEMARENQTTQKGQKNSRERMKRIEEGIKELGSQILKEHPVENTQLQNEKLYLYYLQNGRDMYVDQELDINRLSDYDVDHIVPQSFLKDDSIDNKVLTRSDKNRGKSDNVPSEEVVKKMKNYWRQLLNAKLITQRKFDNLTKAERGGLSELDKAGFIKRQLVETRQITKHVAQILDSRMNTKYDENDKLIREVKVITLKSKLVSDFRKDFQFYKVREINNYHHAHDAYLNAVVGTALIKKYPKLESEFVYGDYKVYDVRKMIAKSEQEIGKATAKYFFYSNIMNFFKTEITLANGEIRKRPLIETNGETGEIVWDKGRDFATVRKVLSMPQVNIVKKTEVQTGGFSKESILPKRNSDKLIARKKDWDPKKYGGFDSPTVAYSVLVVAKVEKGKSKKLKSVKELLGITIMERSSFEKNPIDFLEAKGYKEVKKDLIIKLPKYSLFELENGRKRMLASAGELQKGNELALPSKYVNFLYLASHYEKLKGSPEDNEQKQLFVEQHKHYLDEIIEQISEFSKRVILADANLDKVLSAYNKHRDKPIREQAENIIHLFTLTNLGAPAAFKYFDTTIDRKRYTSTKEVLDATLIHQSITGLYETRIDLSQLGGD
- experimentDescription: eGFP disruption assay, SpCas9, U2OS.eGFP.PEST cells
- Format: cell-based
- appliedConditions: replicate 2
metric: Normalized Z rep2

> print(dat)
                                 smilestext             metric  endpointresult
1       Clc1ccccc1OCc1nn2c(-c3ccccn3)nnc2s1  Normalized Z rep2           −0.16
2  O=C(O)c1cc(NS(=O)(=O)c2cc(F)ccc2F)cnc1N1CCC(N2CCCCC2)CC1  Normalized Z rep2           −0.03
3  c1ccc(-c2nnc3sc(-c4ccc5c(c4)OCO5)nn23)nc1  Normalized Z rep2           −0.09
4  CC(C)NC(=O)CN1CCN(c2ccc(C(=O)O)cc2NC(=O)c2ccccc2Cl)CC1  Normalized Z rep2           −0.21
5  NS(=O)(=O)c1ccc(CCNC(=O)C2=Cc3sc4c(c3CS2)CCCC4)cc1  Normalized Z rep2            0.13
6  O=C(NC1CCCC1)c1cccc(Oc2cc(-c3ccccc3)ncn2)c1  Normalized Z rep2            0.01
7  Clc1cccc(-c2nnc3sc(-c4ccc5ccccc5n4)nn23)c1  Normalized Z rep2           −0.22
8            Cc1ccccc1OCc1nn2c(C(C)C)nnc2s1  Normalized Z rep2           −0.04

###

- targetSystem: SaCas9 (Staphylococcus aureus)
- Sequence (J7RUA5 whole entry): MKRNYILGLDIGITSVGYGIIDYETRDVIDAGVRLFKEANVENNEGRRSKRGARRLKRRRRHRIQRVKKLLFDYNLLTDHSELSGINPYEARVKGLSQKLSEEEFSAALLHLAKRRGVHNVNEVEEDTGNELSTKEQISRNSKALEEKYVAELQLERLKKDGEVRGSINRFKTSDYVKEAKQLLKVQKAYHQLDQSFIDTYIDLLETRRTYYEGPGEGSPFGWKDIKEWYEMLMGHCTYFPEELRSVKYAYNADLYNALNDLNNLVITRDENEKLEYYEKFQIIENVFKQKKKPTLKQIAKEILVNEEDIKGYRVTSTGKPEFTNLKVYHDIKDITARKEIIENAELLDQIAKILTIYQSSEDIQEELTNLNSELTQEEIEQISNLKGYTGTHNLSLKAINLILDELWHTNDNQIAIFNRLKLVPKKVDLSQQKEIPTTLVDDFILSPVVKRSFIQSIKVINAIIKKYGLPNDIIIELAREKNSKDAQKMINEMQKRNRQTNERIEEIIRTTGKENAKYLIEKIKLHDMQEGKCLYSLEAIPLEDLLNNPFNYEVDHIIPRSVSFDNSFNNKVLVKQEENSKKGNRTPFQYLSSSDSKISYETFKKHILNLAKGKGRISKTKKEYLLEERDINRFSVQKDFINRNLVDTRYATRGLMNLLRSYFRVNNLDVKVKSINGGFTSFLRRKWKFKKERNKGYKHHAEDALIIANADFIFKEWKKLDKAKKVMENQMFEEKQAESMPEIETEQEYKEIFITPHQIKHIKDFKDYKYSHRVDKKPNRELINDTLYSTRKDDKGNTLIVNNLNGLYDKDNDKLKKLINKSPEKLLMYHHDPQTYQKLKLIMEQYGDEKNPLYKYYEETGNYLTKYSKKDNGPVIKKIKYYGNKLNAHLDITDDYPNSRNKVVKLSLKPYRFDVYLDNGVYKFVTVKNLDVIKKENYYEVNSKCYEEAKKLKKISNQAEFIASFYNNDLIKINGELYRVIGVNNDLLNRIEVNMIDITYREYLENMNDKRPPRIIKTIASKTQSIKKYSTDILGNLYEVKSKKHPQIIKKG
- experimentDescription: eGFP secondary assay, SaCas9
- Assay type: cell-based
- appliedConditions: replicate 2
Classification scheme (Normalized Inhibition Rep 2): one: < 30; two: ≥ 30 and < 40; three: ≥ 40

> print(dat)
                                    compound  category
 1  Cc1ccccc1CC(=O)N1CCCC(c2nc(O)c3nnn(Cc4ccc(F)cc4)c3n2)C1 (stereo not drawn)     three
 2        COc1ccccc1-c1nn2c(-c3cccnc3)nnc2s1       two
 3  Cc1cc(-c2nn3c(-c4cccc(F)c4)nnc3s2)c2ccccc2n1       one
 4   O=C1c2ccccc2C(=O)c2oc(-c3ccc(F)cc3)nc21       two
 5  C=CC1=C(C(=O)O)N2C(=O)[C@@H](NC(=O)C(=NOCC(=O)O)c3csc(N)n3)[C@H]2SC1.O       one
 6  CCOc1ccc(NC(=O)c2cc(=O)c3cc(CC)ccc3o2)c2cccnc12     three
 7  CCCN(CCC)C(=O)C1CCCN(c2ccc(-c3ccccc3)nn2)C1 (stereo not drawn)     three
 8  Fc1cccc(-c2nnc3sc(-c4c[nH]c5ccccc45)nn23)c1       one
 9  CNC(=O)c1sc(=S)n2c1[nH]c(=O)c1cc(Br)ccc12       one
10  CC(=O)Nc1ccc(C(=O)Nc2ccc(CCc3nc4ccccc4n3-c3ccccc3)cc2)cc1     three
11  Cc1cc(=O)c2cc(C(=O)Nc3ccc(F)cc3)ccc2[nH]1     three
12  Cc1ccc(-n2ncc(C(=O)Nc3ccc(Br)cc3)c2C2CCNCC2)cc1     three
13     CC(C)Cc1nnc2sc(-c3c[nH]c4ccccc34)nn12     three
14  CC1(C(=O)NC2CCCCC2)Cn2c(cc3ccccc32)C(=O)N1Cc1ccccc1 (stereo not drawn)       two
15  Cc1nc(Nc2ccc(N3CCOCC3)cc2)cc(-c2ccccc2)n1     three
16  COc1cccc(N2C(=O)c3cc4ccccc4n3CC2(C)C(=O)NC2CCCCC2)c1 (stereo not drawn)       one
17  COc1ccc(N2C(=O)c3cc4ccccc4n3CC2(C)C(=O)NC2CCCCC2)c(OC)c1 (stereo not drawn)       one

Data provenance: patent US20240115557A1
